TARGET OF ASSAY: human CK2α (Homo sapiens)
Construct: CK2α was from KinaseDetect Aps; purchased KinaseDetect Aps
Sequence (P68400 whole entry): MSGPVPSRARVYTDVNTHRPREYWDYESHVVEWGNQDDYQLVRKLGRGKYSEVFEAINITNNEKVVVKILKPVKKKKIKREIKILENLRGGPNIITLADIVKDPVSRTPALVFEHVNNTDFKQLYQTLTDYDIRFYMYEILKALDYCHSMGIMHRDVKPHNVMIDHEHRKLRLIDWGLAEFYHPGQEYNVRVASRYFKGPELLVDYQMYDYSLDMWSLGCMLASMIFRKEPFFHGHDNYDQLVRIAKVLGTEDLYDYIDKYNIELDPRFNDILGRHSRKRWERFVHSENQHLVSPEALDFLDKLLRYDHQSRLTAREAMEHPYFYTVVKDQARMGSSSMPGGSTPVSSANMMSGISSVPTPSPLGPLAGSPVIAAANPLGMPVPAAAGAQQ
ASSAY NOTES: CK2α activity, P81 filter isotopic assay (inhibition, IC50)
Format: biochemical
CONDITION LABEL: as stated in legend of Figure 5
pIC50: −log10 of the molar value.
PROPERTY MEASURED: pIC50

For the compound c1ccc2[nH]nnc2c1 [Bt, benzotriazole, reference compound] , the measured pIC50 on human CK2α (Homo sapiens) was < 2.70

* * *

So I've got a bunch of molecules here, and I need their IC50 values.
TARGET OF ASSAY: human CK2α (Homo sapiens)
Construct: CK2α was from KinaseDetect Aps; purchased KinaseDetect Aps
ASSAY NOTES: CK2α activity, P81 filter isotopic assay (inhibition, IC50)
Type: biochemical
CONDITION LABEL: 10 µM ATP, 20 µM peptide substrate, pH 7.5, 30°C, 20 min
Answers are plain numbers, in µM.

As a guide, the following entries are already answered.
- MOLECULE: "Brc1ccc2nn[nH]c2c1 [5-BrBt]"
  TARGET OF ASSAY: "human CK2α (Homo sapiens)"
  ENDPOINT VALUE: 26
- MOLECULE: "Brc1ccc(Br)c2[nH]nnc12 [4,7-Br2Bt]"
  TARGET OF ASSAY: "human CK2α (Homo sapiens)"
  ENDPOINT VALUE: 72
- MOLECULE: "Brc1ccc2[nH]nnc2c1Br [4,5-Br2Bt]"
  TARGET OF ASSAY: "human CK2α (Homo sapiens)"
  ENDPOINT VALUE: 10.6

Go through the items and report each one's IC50.
1. Brc1cc2[nH]nnc2c(Br)c1Br [4,5,6-Br3Bt]
2. Brc1cccc2[nH]nnc12 [4-BrBt]

1. 0.38
2. 119

Would you mind listing IC50 for each of the following molecules?
1. Brc1cc(Br)c2nn[nH]c2c1 [4,6-Br2Bt]
2. Brc1cc2nn[nH]c2cc1Br [5,6-Br2Bt]
3. Brc1cc(Br)c2[nH]nnc2c1Br [4,5,7-Br3Bt]

[10, 0.56, 5.8]

Source: paper PMC3498355
